Hey, just so you know, these numbers are from PubChem BioAssay AID492997.

assay: thallium flux in non-induced HEK293 cells, confirmation, counter-screen for KCNK9 inhibitor project, cell-based, second counter screen, non-induced KCNK9-HEK293 (AID 492997); conditions: non-induced KCNK9-HEK293, FluxOR thallium flux, at 10 µM
About 2,000 (41%) of roughly 4,900 compounds were called active.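 Rule for the calls: active = thallium signal drop beyond 5 SD of the untreated control mean, on both duplicate plates; inactive = the rest.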 So high a share suggests a set chosen from earlier hits. Only a sample is shown.
Pick one and only one: t (active), f (inactive)

COc1cc(Cl)c(S(=O)(=O)N2CCN(Cc3ccc4c(c3)OCO4)CC2)cc1Cl
f

Pending molecule:
Ask: Which outcome did this test record for the molecule Cc1ccnc(N2CCN(C(=O)CSc3nc4ccccc4nc3N3CCCCC3)CC2)c1 ?
Result: f

====

assay: thallium flux in non-induced HEK293 cells, confirmation, counter-screen for KCNK9 inhibitor project, cell-based, second counter screen, non-induced KCNK9-HEK293 (AID 492997); conditions: non-induced KCNK9-HEK293, FluxOR thallium flux, at 10 µM
Hit rate of the full screen: of about 4,900 compounds, about 2,000 (41%) were called active.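 The calls were made as follows: active = thallium signal drop beyond 5 SD of the untreated control mean, on both duplicate plates; inactive = the rest.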 The set was probably picked from earlier hits. Not all results are given here.
Pick one and only one: 1 for active, 0 for inactive

These recorded examples may help you get a feel for the data.
CCOC(=O)C(C)Sc1nc2ccccc2c(=O)n1CC1CCCCC1 (stereo unspecified)
1
Clc1ccc(CSc2nnc(/C=C/c3ccccc3)o2)c(Cl)c1
0

Ask: Which outcome did this test record for the compound O=[N+]([O-])/C=C/c1ccc2c(ccn2Cc2ccccc2)c1 ?
Result: 1

Ask: Which outcome did this test record for the compound CN(CCC(=O)Nc1cc(S(=O)(=O)N(C)C)ccc1Cl)CC(=O)Nc1ccc(F)cc1 ?
Result: 1

Ask: Which outcome did this test record for the compound COC(=O)c1cccc(C(=O)N2CCCC(Nc3ccc4c(c3)OCCO4)C2)c1 (stereo unspecified) ?
Result: 0

Ask: Which outcome did this test record for the compound C/C(=N\NC(=S)Nc1ccc(C)cc1)c1cc2ccccc2o1 ?
Result: 0

Ask: Which outcome did this test record for the compound Cc1cc(Cl)ccc1C(=O)C1CCCN(C(=O)CCN2CCCO2)C1 (stereo unspecified) ?
Result: 0

Ask: Which outcome did this test record for the compound O=C1CC(NNc2ccccc2)C(=O)N1c1cccc(Cl)c1 (stereo unspecified) ?
Result: 0

Ask: Which outcome did this test record for the compound CCOC(=O)N/N=C/c1cn(Cc2ccccc2Cl)c2ccccc12 ?
Result: 1

Ask: Which outcome did this test record for the compound Fc1ccc(Cn2nnnc2C(c2cccs2)N2CCCCCC2)cc1 (stereo unspecified) ?
Result: 1

Ask: Which outcome did this test record for the compound COc1cccc(-c2cnc(OC(C)(C)C)nc2OC(C)(C)C)c1 ?
Result: 0

====

assay: thallium flux in non-induced HEK293 cells, confirmation, counter-screen for KCNK9 inhibitor project, cell-based, second counter screen, non-induced KCNK9-HEK293 (AID 492997); settings: non-induced KCNK9-HEK293, FluxOR thallium flux, at 10 µM
Out of some 4,900 compounds screened, about 2,000 (41%) were called active.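 How the source made its calls: active means thallium signal drop beyond 5 SD of the untreated control mean, on both duplicate plates; inactive means the rest.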 So high a share suggests a set chosen from earlier hits. The list is a sample of the results.
Pick one and only one: active, inactive

COc1ccc(C(=O)C2CCCN(C(=O)c3cc(C)on3)C2)cc1F (stereo unspecified)
inactive
O=C1N=C2SCCN2/C1=C\c1c(Cl)cccc1Cl
inactive
CCCSc1nc(NCc2ccco2)c2c3c(sc2n1)COC(C)(CC)C3 (stereo unspecified)
active
CCCCn1ccnc1C(=O)c1cccc(S(=O)(=O)N2c3ccccc3CC2C)c1 (stereo unspecified)
active
CC1(C)CC(=O)CC2(C1)NCC(c1ccccc1Cl)c1c2[nH]c2ccccc12 (stereo unspecified)
active

Ask: Which outcome did this test record for the compound Cc1cc2ccccn2c1C(=O)c1cccc(S(=O)(=O)N2CCOCC2)c1 ?
Result: inactive
